- Test system: Staphylococcus aureus
- Experimental protocol: Antibacterial activity against Staphylococcus aureus after 24 hrs by broth dilution method
- Format: functional
This listing pairs compounds with measured MIC.
The reply must contain the numeric value and, after it, the unit.

Examples with answers:
>>> observed("Nn1c(CS(=O)(=O)Nc2ccc(Cl)cc2)nnc1CS(=O)(=O)c1c[nH]cc1S(=O)(=O)c1ccc(Cl)cc1")
"50 µg/mL"
>>> observed("O=C(N[C@H](CO)[C@H](O)c1ccc([N+](=O)[O-])cc1)C(Cl)Cl")
"6.25 µg/mL"
>>> observed("Nn1c(CS(=O)(=O)Nc2ccc(Cl)cc2)nnc1CS(=O)(=O)c1c[nH]nc1S(=O)(=O)c1ccc(Cl)cc1")
"50 µg/mL"

Name the recorded MIC for Nn1c(CS(=O)(=O)/C=C/S(=O)(=O)c2ccc(Cl)cc2)nnc1CS(=O)(=O)Nc1ccc(Cl)cc1 .
12.5 µg/mL

====

- System: Staphylococcus aureus
- Experimental protocol: Antibacterial activity against Staphylococcus aureus at 100 ug/ml after 24 hrs by agar well diffusion method
- Type: functional
- Experimental setup: read-out: DIZ
Assay endpoint: zone of inhibition at 100 µg/mL
The reply must contain the numeric value and, after it, the unit.

>>> observed("O=S(=O)(Cc1nnc(CS(=O)(=O)c2c[nH]cc2S(=O)(=O)c2ccc(Cl)cc2)s1)Nc1ccc(Cl)cc1")
"27 mm"

Name the recorded zone of inhibition at 100 µg/mL for Nn1c(CS(=O)(=O)/C=C/S(=O)(=O)c2ccccc2)nnc1CS(=O)(=O)Nc1ccccc1 .
23 mm

Name the recorded zone of inhibition at 100 µg/mL for Cc1ccc(NS(=O)(=O)Cc2nnc(CS(=O)(=O)/C=C/S(=O)(=O)c3ccc(C)cc3)n2N)cc1 .
22 mm

Name the recorded zone of inhibition at 100 µg/mL for Cc1ccc(NS(=O)(=O)Cc2nnc(CS(=O)(=O)c3c[nH]cc3S(=O)(=O)c3ccc(C)cc3)n2N)cc1 .
18 mm

Name the recorded zone of inhibition at 100 µg/mL for O=S(=O)(Cc1nnc(CS(=O)(=O)c2c[nH]nc2S(=O)(=O)c2ccccc2)s1)Nc1ccccc1 .
17 mm

Name the recorded zone of inhibition at 100 µg/mL for Nn1c(CS(=O)(=O)Nc2ccccc2)nnc1CS(=O)(=O)c1c[nH]nc1S(=O)(=O)c1ccccc1 .
21 mm

Name the recorded zone of inhibition at 100 µg/mL for O=S(=O)(/C=C/S(=O)(=O)c1ccc(Cl)cc1)Cc1nnc(CS(=O)(=O)Nc2ccc(Cl)cc2)o1 .
17 mm

Name the recorded zone of inhibition at 100 µg/mL for O=C(N[C@H](CO)[C@H](O)c1ccc([N+](=O)[O-])cc1)C(Cl)Cl [CHLORAMPHENICOL] .
35 mm

Name the recorded zone of inhibition at 100 µg/mL for Nn1c(CS(=O)(=O)Nc2ccc(Cl)cc2)nnc1CS(=O)(=O)C1CNN=C1S(=O)(=O)c1ccc(Cl)cc1 (configuration not stated) .
27 mm

Name the recorded zone of inhibition at 100 µg/mL for Nn1c(CS(=O)(=O)Nc2ccc(Cl)cc2)nnc1CS(=O)(=O)c1c[nH]nc1S(=O)(=O)c1ccc(Cl)cc1 .
34 mm

Name the recorded zone of inhibition at 100 µg/mL for O=S(=O)(Cc1nnc(CS(=O)(=O)C2CNN=C2S(=O)(=O)c2ccc(Cl)cc2)o1)Nc1ccc(Cl)cc1 (configuration not stated) .
18 mm

Name the recorded zone of inhibition at 100 µg/mL for O=S(=O)(/C=C/S(=O)(=O)c1ccccc1)Cc1nnc(CS(=O)(=O)Nc2ccccc2)o1 .
13 mm

Name the recorded zone of inhibition at 100 µg/mL for O=S(=O)(Cc1nnc(CS(=O)(=O)C2CNN=C2S(=O)(=O)c2ccccc2)s1)Nc1ccccc1 (configuration not stated) .
14 mm

The values you see were collected from ChEMBL document CHEMBL2040768.
